Tested on: HUVEC
Assay: cells
Details: Homo sapiens, 24 h
Description: Cytotoxicity against HUVEC cells assessed as inhibition of cell proliferation in presence of VEGF measured after 24 hrs by CCK8 assay
measurementLabel: IC50

Reported IC50 for "O=C1Nc2ccc(F)cc2/C1=C/c1ccc(-c2cn(-c3ccc(Cl)c(C(F)(F)F)c3)nn2)cc1" : what is it?
> 20 µM

Reported IC50 for "O=C1Nc2ccccc2/C1=C/c1ccc(-c2cn(-c3cccc(F)c3)nn2)cc1" : what is it?
> 20 µM

Reported IC50 for "N#Cc1cccc(-n2cc(-c3ccc(/C=C4\C(=O)Nc5ccc(F)cc54)cc3)nn2)c1" : what is it?
> 20 µM

Reported IC50 for "N#Cc1ccccc1-n1cc(-c2ccc(/C=C3\C(=O)Nc4ccccc43)cc2)nn1" : what is it?
19.7 µM

Reported IC50 for "O=C1Nc2ccccc2/C1=C/c1ccc(-c2cn(-c3ccccc3Cl)nn2)cc1" : what is it?
> 20 µM

###

Test system: MKN-45
Assay: cells
Details: Homo sapiens, MKN-45, 24 h
Description: Antiproliferative activity against human MKN-45 cells assessed assessed as inhibition of VEGF-induced cell proliferation measured after 24 hrs by CCK8 assay
Examples of molecules with documented pIC50 follow.
Note: pIC50 values are expressed as the negative base-10 logarithm of concentration in M.

1) Cc1cccc(-n2cc(-c3ccc(/C=C4\C(=O)Nc5ccccc54)cc3)nn2)c1 = 5.33

Reported pIC50 for "O=C1Nc2ccc(F)cc2C1=Cc1ccc(-c2cn(-c3ccc(Cl)cc3)nn2)cc1" : what is it?
4.80

Reported pIC50 for "O=C1Nc2ccc(F)cc2/C1=C/c1ccc(-c2cn(-c3cccc(F)c3)nn2)cc1" : what is it?
5.09

Reported pIC50 for "Cc1cccc(-n2cc(-c3ccc(/C=C4\C(=O)Nc5ccc(F)cc54)cc3)nn2)c1" : what is it?
5.17

Reported pIC50 for "CCN(CC)CCNC(=O)c1c(C)[nH]c(/C=C2\C(=O)Nc3ccc(F)cc32)c1C" : what is it?
5.03

Reported pIC50 for "O=C1Nc2ccc(F)cc2/C1=C/c1ccc(-c2cn(-c3ccccc3Cl)nn2)cc1" : what is it?
5.12

Reported pIC50 for "O=C1Nc2ccccc2/C1=C/c1ccc(-c2cn(-c3ccccc3)nn2)cc1" : what is it?
4.94

###

System: MKN-45
Test: cells
Conditions: Homo sapiens, MKN-45, 24 h
measurementLabel: pIC50
Note: pIC50 values are expressed as the negative base-10 logarithm of concentration in M.

1) O=C1Nc2ccccc2/C1=C/c1ccc(-c2cn(-c3ccc(Cl)cc3)nn2)cc1 = 4.79

Reported pIC50 for "O=C1Nc2ccc(F)cc2/C1=C/c1ccc(-c2cn(-c3ccccc3F)nn2)cc1" : what is it?
5.07

Reported pIC50 for "N#Cc1ccccc1-n1cc(-c2ccc(/C=C3\C(=O)Nc4ccccc43)cc2)nn1" : what is it?
4.83

Reported pIC50 for "O=C1Nc2ccc(F)cc2/C1=C/c1ccc(-c2cn(-c3cccc(Cl)c3)nn2)cc1" : what is it?
4.85

Reported pIC50 for "Cc1ccc(-n2cc(-c3ccc(/C=C4\C(=O)Nc5ccc(F)cc54)cc3)nn2)cc1" : what is it?
4.46

Reported pIC50 for "O=C1Nc2ccccc2/C1=C/c1ccc(-c2cn(-c3ccccc3F)nn2)cc1" : what is it?
4.90

Reported pIC50 for "Cc1ccccc1-n1cc(-c2ccc(/C=C3\C(=O)Nc4ccccc43)cc2)nn1" : what is it?
5.01

Values were extracted from ChEMBL document CHEMBL4819005.
